Would you kindly list viability, T/C for each of these compounds?
- System: 521955-158-R2-J5-PDC complex spheroids, viability
- Assay: Anticancer human tumor 521955-158-R2-J5-PDC patient-derived pancreatic carcinoma cell line growth inhibition [RAS]
- Protocol Conditions: compound 10 µM; stronger effect = lower value
- Description: RAS pathway inhibitors in Combinations in Complex Spheroids A high-throughput screen of multi-cell type tumor spheroids was designed to identify active combinations of RAS pathway inhibitors and targeted small molecules. Complex spheroids include a stromal component modeled by human endothelial cells (HUVEC) and fibroblasts modeled by human mesenchymal stem cells (MSCs). […] Compounds. […] If the clinical Cmax for an agent had not been determined, the highest concentration tested was 10 microM. […]

Worked cases, viability, T/C given:
- C#Cc1c(F)ccc2cc(O)cc(-c3ncc4c(N5CC6CCC(C5)N6)nc(OCC56CCCN5CC(F)C6)nc4c3F)c12 (configuration not stated): 35.1% [middle of 8 runs]
- NC1c2ccccc2OC12CCN(c1cnc3c(N4CCCc5ncccc54)n[nH]c3n1)CC2 (configuration not stated): 61.6% [middle of 4 runs]
- CCC(CC)c1cc(NC2CCC(N)C2)n2nccc2n1 (configuration not stated): 10.2% [middle of 4 runs]
- CC(C)NCC(C(=O)N1CCN(c2ncnc3c2C(C)CC3O)CC1)c1ccc(Cl)cc1 (configuration not stated): 72.5% [middle of 4 runs]
- C[C@@H](NC(=O)c1ncnc(N)c1Cl)c1ncc(C(=O)Nc2cc(C(F)(F)F)c(Cl)cn2)s1: 60.9% [middle of 4 runs]
- CC(Nc1ccc2c(c1)OCCn1cc(N3C(=O)OCC3C(F)F)nc1-2)C(N)=O (configuration not stated): 23.5% [middle of 4 runs]

Now look at this one.
[in] Please give the documented viability, T/C of CC1(O)CCCC1n1c(=O)c(C(F)F)cc2cnc(NC3CCN(S(C)(=O)=O)CC3)nc21 (configuration not stated)
[out] 14.9% [middle of 4 runs]

* * *

- Test system: 521955-158-R2-J5-PDC complex spheroids, viability
- Assay: Anticancer human tumor 521955-158-R2-J5-PDC cell line growth inhibition [RAS]; active = viability on the fitted dose curve at most 10% of control; inactive = the rest;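 further: spheroids also contain HUVEC endothelial cells and mesenchymal stem cells as stroma; compound exposure lasted seven days before the viability read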
- Protocol Conditions: second compound 0.3 µM; first compound 0.1 µM
Please reply with one of these outcomes: TRUE for active, FALSE for inactive

Illustrative cases are given below, each with its answer.
• CCC(CC)c1cc(NC2CCC(N)C2)n2nccc2n1 (centres undefined) + CCn1c(-c2cc(N3CCN(C)CC3)cnc2C(C)OC)c2c3cc(ccc31)-c1csc(n1)CC(NC(=O)C1CC1C)C(=O)N1CCCC(N1)C(=O)OCC(C)(C)C2 = FALSE
• C=CC(=O)N1CCN(c2nc(OCC3CCCN3C)nc3c(F)c(-c4nc(N)cc(C)c4C(F)(F)F)c(Cl)cc23)C(C)C1 (centres undefined) + CCn1c(-c2cc(N3CCN(C)CC3)cnc2C(C)OC)c2c3cc(ccc31)-c1csc(n1)CC(NC(=O)C1CC1C)C(=O)N1CCCC(N1)C(=O)OCC(C)(C)C2 = FALSE
• O=C(c1ccc(F)c(F)c1Nc1ccc(I)cc1F)N1CC(O)([C@@H]2CCCCN2)C1 + CCn1c(-c2cccnc2C(C)OC)c2c3cc(ccc31)N1CCOC(CC(NC(=O)C(C(C)C)N(C)C(=O)C3(F)CCN(C(=O)C#CC(C)(C)N(C)C)CC3)C(=O)N3CCCC(N3)C(=O)OCC(C)(C)C2)C1 = FALSE

[in] Test call, this compound: CC(C)n1nc(-c2ccc3oc(N)nc3c2)c2c(N)ncnc21 + CCn1c(-c2cc(N3CCN(C)CC3)cnc2C(C)OC)c2c3cc(ccc31)-c1csc(n1)CC(NC(=O)C1CC1C)C(=O)N1CCCC(N1)C(=O)OCC(C)(C)C2
[out] TRUE

* * *

Give measured viability, T/C for each item. Keep answers brief.
- Tested on: 521955-158-R2-J5-PDC complex spheroids, viability
- Assay: Anticancer human tumor 521955-158-R2-J5-PDC cell line growth inhibition [RAS];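 further: spheroids also contain HUVEC endothelial cells and mesenchymal stem cells as stroma; compound exposure lasted seven days before the viability read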
- Protocol Conditions: second compound 0.00316 µM; first compound 10 µM; stronger effect = lower value
One number for each entry, in %.

- CC(=O)OC12COC1CC(O)C1(C)C(=O)C(O)C3=C(C)C(OC(=O)C(O)C(NC(=O)OC(C)(C)C)c4ccccc4)CC(O)(C(OC(=O)c4ccccc4)C21)C3(C)C (stereo not given) + C=CC(=O)N1CCN(c2nc(OCC3CCCN3C)nc3c(F)c(-c4nc(N)cc(C)c4C(F)(F)F)c(Cl)cc23)C(C)C1: 64.4

Please report viability, T/C for every entry that follows.
1. CCC(CC)c1cc(NC2CCC(N)C2)n2nccc2n1 (stereo not given) + C=CC(=O)N1CCN(c2nc(OCC3CCCN3C)nc3c(F)c(-c4nc(N)cc(C)c4C(F)(F)F)c(Cl)cc23)C(C)C1
2. NC1c2ccccc2OC12CCN(c1cnc3c(N4CCCc5ncccc54)n[nH]c3n1)CC2 (stereo not given) + C=CC(=O)N1CCN(c2nc(OCC3CCCN3C)nc3c(F)c(-c4nc(N)cc(C)c4C(F)(F)F)c(Cl)cc23)C(C)C1
3. CC1(O)CCCC1n1c(=O)c(C(F)F)cc2cnc(NC3CCN(S(C)(=O)=O)CC3)nc21 (stereo not given) + C=CC(=O)N1CCN(c2nc(OCC3CCCN3C)nc3c(F)c(-c4nc(N)cc(C)c4C(F)(F)F)c(Cl)cc23)C(C)C1
4. CC(C)NCC(C(=O)N1CCN(c2ncnc3c2C(C)CC3O)CC1)c1ccc(Cl)cc1 (stereo not given) + C=CC(=O)N1CCN(c2nc(OCC3CCCN3C)nc3c(F)c(-c4nc(N)cc(C)c4C(F)(F)F)c(Cl)cc23)C(C)C1

[out]
1. 10.1
2. 59.3
3. 14.4
4. 54.6

* * *

- System: 521955-158-R2-J5-PDC complex spheroids, viability
- Assay: Anticancer human tumor 521955-158-R2-J5-PDC cell line growth inhibition [RAS];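 further: spheroids also contain HUVEC endothelial cells and mesenchymal stem cells as stroma; compound exposure lasted seven days before the viability read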
- Protocol Conditions: second compound 0.000949 µM; first compound 0.00316 µM; stronger effect = lower value
Observed Property: viability, T/C (%)
One number for each entry, in %.

Below, each entry is followed by its recorded viability, T/C result.
• O=C(c1ccc(F)c(F)c1Nc1ccc(I)cc1F)N1CC(O)([C@@H]2CCCCN2)C1 + CCn1c(-c2cc(N3CCN(C)CC3)cnc2C(C)OC)c2c3cc(ccc31)-c1csc(n1)CC(NC(=O)C1CC1C)C(=O)N1CCCC(N1)C(=O)OCC(C)(C)C2 = 59.3
• O=C(c1ccc(F)c(F)c1Nc1ccc(I)cc1F)N1CC(O)([C@@H]2CCCCN2)C1 + CCn1c(-c2cccnc2C(C)OC)c2c3cc(ccc31)N1CCOC(CC(NC(=O)C(C(C)C)N(C)C(=O)C3(F)CCN(C(=O)C#CC(C)(C)N(C)C)CC3)C(=O)N3CCCC(N3)C(=O)OCC(C)(C)C2)C1 = 83
• Nc1ccn(C2OC(CO)C(O)C2(F)F)c(=O)n1 (stereo not drawn) + CCn1c(-c2cc(N3CCN(C)CC3)cnc2C(C)OC)c2c3cc(ccc31)-c1csc(n1)CC(NC(=O)C1CC1C)C(=O)N1CCCC(N1)C(=O)OCC(C)(C)C2 = 35.3
• Nc1ccn(C2OC(CO)C(O)C2(F)F)c(=O)n1 (stereo not drawn) + CCn1c(-c2cccnc2C(C)OC)c2c3cc(ccc31)N1CCOC(CC(NC(=O)C(C(C)C)N(C)C(=O)C3(F)CCN(C(=O)C#CC(C)(C)N(C)C)CC3)C(=O)N3CCCC(N3)C(=O)OCC(C)(C)C2)C1 = 112
• CCN1CCN(Cc2ccc(Nc3ncc(F)c(-c4cc(F)c5nc(C)n(C(C)C)c5c4)n3)nc2)CC1 + CCn1c(-c2cccnc2C(C)OC)c2c3cc(ccc31)N1CCOC(CC(NC(=O)C(C(C)C)N(C)C(=O)C3(F)CCN(C(=O)C#CC(C)(C)N(C)C)CC3)C(=O)N3CCCC(N3)C(=O)OCC(C)(C)C2)C1 = 96.8

Provide each entry's viability, T/C from the list below.
1. C=CC(=O)Nc1cc(Nc2nccc(-c3cn(C)c4ccccc34)n2)c(OC)cc1N(C)CCN(C)C + CCn1c(-c2cc(N3CCN(C)CC3)cnc2C(C)OC)c2c3cc(ccc31)-c1csc(n1)CC(NC(=O)C1CC1C)C(=O)N1CCCC(N1)C(=O)OCC(C)(C)C2
2. C=CC(=O)Nc1cc(Nc2nccc(-c3cn(C)c4ccccc34)n2)c(OC)cc1N(C)CCN(C)C + CCn1c(-c2cccnc2C(C)OC)c2c3cc(ccc31)N1CCOC(CC(NC(=O)C(C(C)C)N(C)C(=O)C3(F)CCN(C(=O)C#CC(C)(C)N(C)C)CC3)C(=O)N3CCCC(N3)C(=O)OCC(C)(C)C2)C1
3. CCN1CCN(Cc2ccc(Nc3ncc(F)c(-c4cc(F)c5nc(C)n(C(C)C)c5c4)n3)nc2)CC1 + CCn1c(-c2cc(N3CCN(C)CC3)cnc2C(C)OC)c2c3cc(ccc31)-c1csc(n1)CC(NC(=O)C1CC1C)C(=O)N1CCCC(N1)C(=O)OCC(C)(C)C2

[out]
1: 44.6; 2: 89.9; 3: 43.2

Source listed as PubChem BioAssay AID2060900.
